Consider the following compounds; for each one, report its residual activity.
Biological target: Ephrin type-A receptor 8 (Homo sapiens)
Conditions: at 10 µM
Your answer should be a number followed by the unit of measure.

Example cases with answers are listed next.
CHEM SMILES: O=c1cc(N2CCOCC2)oc2c1ccc1ccccc12
STUDY TARGET: Ephrin type-A receptor 8 (Homo sapiens)
REPORTED ENDPOINT: residual activity
OBS VALUE: 97%
//
CHEM SMILES: Nc1ncnc2c1cnn2-c1ccccc1
STUDY TARGET: Ephrin type-A receptor 8 (Homo sapiens)
REPORTED ENDPOINT: residual activity
OBS VALUE: 95%

Consider the following items and state reported residual activity for each.
1. COc1cc2nccc(Oc3ccc(NC(=O)Nc4cc(C)on4)c(Cl)c3)c2cc1OC
2. COc1ccc(COc2ccc(Cc3cnc(N)nc3N)cc2OC)cc1
3. Nc1ncnc2c1c(-c1ccc(Oc3ccccc3)cc1)cn2C1CCCC1
4. COc1ccc(-c2cnc3c(-c4ccsc4)cnn3c2)cc1
5. COc1cc2nccc(Oc3ccc(NC(=S)NC(=O)c4ccccc4C)cc3)c2cc1OC
6. CCCCc1c(-c2ccc(O)cc2)[nH]c2nccnc12
7. N#C/C(=C1/Nc2ccccc2S1)c1ccnc(NCCc2cccnc2)n1
8. CC(C)(C)c1nc2c3ccc(F)cc3c3c(=O)[nH]ccc3c2[nH]1

["1%", "110%", "27%", "99%", "49%", "58%", "83%", "103%"]

Consider the following items and state reported residual activity for each.
1. Nc1ncnc2[nH]nc(Nc3ccc(F)cc3)c12
2. O=C(c1cc2cc(O)ccc2[nH]1)c1cc2cc(O)ccc2[nH]1
3. Cn1sc(=O)n(Cc2ccccc2)c1=O
4. O=C(CCCc1ccc(-c2ccccc2F)cc1)Nc1ccc(O)cc1
5. CC(C)(C)n1nc(Cc2cccc3ccccc23)c2c(N)ncnc21

1: 43%; 2: 73%; 3: 84%; 4: 94%; 5: 6%

Consider the following items and state reported residual activity for each.
1. O=C1C(Cl)=C(N2C(=O)CCC2=O)C(=O)c2ccccc21
2. O=C(O)/C=C/c1cc(Br)c(Br)c(Br)c1Br
3. O=C1Cc2c([nH]c3ccc(Br)cc23)-c2ccccc2N1
4. CC(C)c1nn(-c2c(Cl)cccc2Cl)c2nc(Cc3ccc(OCCO)cc3)[nH]c(=O)c12
5. O=C1NC(=O)c2c1c1c3ccccc3[nH]c1n1cncc21
6. NC(=O)Nc1sc(-c2ccc(F)cc2)cc1C(N)=O
7. O=c1cc(N2CCNCC2)oc2c(-c3ccccc3)cccc12

1: 92%; 2: 99%; 3: 82%; 4: 89%; 5: 93%; 6: 54%; 7: 100%
